- System: HepG2
- protocol: cytotoxicity call (relative viability < 0.9)
- conditionNotes: 10 µM
Screen size: about 39,000 compounds; about 3,300 (8.5%) were called active. The entries come from a sample that favours actives as a whole.
Possible outcomes: class 1 = active, class 0 = inactive

# molecule, labelValue
rows = [
    ("Clc1ccc(CON=C(Cn2ccnc2)c2ccc(Cl)cc2Cl)c(Cl)c1.O=[N+]([O-])O", "class 0"),
    ("C[C@H]1CN([C@@H](C)CO)C(=O)Cc2cc(NS(C)(=O)=O)ccc2O[C@H]1CN(C)Cc1ccc(C(=O)O)cc1", "class 0"),
    ("CN1CCN(C(=O)C[C@H]2CC[C@@H]3[C@H](COC[C@H](O)CN3S(=O)(=O)c3cccc(Cl)c3)O2)CC1", "class 0"),
    ("CC1(C)SC2C(NC(=O)C(N)c3ccccc3)C(=O)N2C1C(=O)[O-].[Na+] (stereo not drawn)", "class 0"),
    ("C[C@@H]1CN([C@H](C)CO)C(=O)Cc2cc(NC(=O)C3CCCCC3)ccc2O[C@H]1CN(C)S(=O)(=O)c1cn(C)cn1", "class 0"),
    ("CC(NCCC(c1ccccc1)c1ccccc1)c1ccccc1.Cl (stereo not drawn)", "class 1"),
    ("Clc1ccc(COC(Cn2ccnc2)c2ccc(Cl)cc2Cl)cc1.O=[N+]([O-])O (stereo not drawn)", "class 1"),
    ("Cl.N=C(N)n1cccn1", "class 0"),
    ("CC[C@H](C)n1ncn(-c2ccc(N3CCN(c4ccc(OC[C@H]5CO[C@](Cn6cncn6)(c6ccc(Cl)cc6Cl)O5)cc4)CC3)cc2)c1=O", "class 0"),
    ("C[C@H]1CN([C@@H](C)CO)C(=O)Cc2cc(NC(=O)c3ccncc3)ccc2O[C@@H]1CN(C)S(=O)(=O)c1ccc(F)cc1", "class 0"),
    ("C[C@@H]1CN([C@H](C)CO)C(=O)c2cc(NC(=O)CCCN(C)C)ccc2O[C@@H](C)CCCCO[C@H]1CN(C)S(=O)(=O)c1cn(C)cn1", "class 0"),
    ("CC(C)N1CCN(c2ccc(OCC3COC(Cn4cncn4)(c4ccc(Cl)cc4Cl)O3)cc2)CC1 (stereo not drawn)", "class 0"),
    ("C[C@H](NC(=O)[C@@H]1CCCC[C@H]1C(=O)O)c1ccccc1.C[C@H](NC(=O)[C@H]1CCCC[C@H]1C(=O)O)c1ccccc1", "class 0"),
    ("CCCNC(=O)N1C[C@@H](O)COC[C@H]2O[C@H](CC(=O)N3CCN(C)CC3)CC[C@@H]21", "class 0"),
    ("COCC#Cc1ccc2c(c1)O[C@H](CN(C)C(=O)c1ccccc1F)[C@@H](C)CN([C@H](C)CO)S2(=O)=O", "class 0"),
    ("C[C@H](CO)N1C[C@H](C)[C@H](CN(C)C(=O)Nc2ccc(F)cc2)Oc2ccc(NC(=O)CCCCCC(=O)Nc3ccccc3N)cc2CC1=O", "class 0"),
    ("C[C@@H]1CN([C@@H](C)CO)C(=O)c2cc(NC(=O)Nc3cccc4ccccc34)ccc2O[C@@H]1CN(C)Cc1ccncc1", "class 0"),
    ("Cc1noc(C)c1S(=O)(=O)Nc1ccc2c(c1)CC(=O)N([C@H](C)CO)C[C@H](C)[C@H](CN(C)S(=O)(=O)c1cn(C)cn1)O2", "class 0"),
    ("C[C@H]1CN([C@@H](C)CO)C(=O)c2cc(NC(=O)Nc3cccc4ccccc34)ccc2O[C@H]1CN(C)S(=O)(=O)c1cccs1", "class 0"),
    ("C[C@@H]1CN([C@@H](C)CO)C(=O)Cc2cc(NC(=O)C3CC3)ccc2O[C@@H]1CN(C)C(=O)Nc1ccccc1", "class 0"),
    ("Cc1ccc(S(=O)(=O)Nc2ccc3c(c2)C(=O)N([C@@H](C)CO)C[C@@H](C)[C@@H](CN(C)S(=O)(=O)c2c(C)noc2C)O3)cc1", "class 0"),
    ("CC(=O)OC1CCC2(C)C(CCC3(C)C2CCC24OC(=O)C5(CCC(C)C(C)C52)CCC34C)C1(C)C (stereo not drawn)", "class 0"),
    ("Clc1ccc(CSC(Cn2ccnc2)c2ccc(Cl)cc2Cl)cc1.O=[N+]([O-])O (stereo not drawn)", "class 1"),
    ("CO[C@@H]1CN(C)C(=O)c2cc(NS(=O)(=O)CC(F)(F)F)ccc2OC[C@@H](C)N(Cc2ccccn2)C[C@H]1C", "class 0"),
    ("C[C@H](CO)N1C[C@H](C)[C@@H](CN(C)Cc2ccccc2)Oc2ccc(NC(=O)Nc3ccc(C(F)(F)F)cc3)cc2CC1=O", "class 1"),
    ("CC(C)(C)Nc1nc(=O)[nH]c(=O)[nH]1", "class 0"),
    ("Cc1nc(-c2cccc(F)c2)cs1", "class 0"),
    ("C[C@H](CO)N1C[C@H](C)[C@H](CN(C)C(=O)c2cnccn2)Oc2ncc(/C=C/c3ccccc3)cc2C1=O", "class 0"),
    ("Cc1sccc1-c1csc(N)n1", "class 0"),
    ("C[C@@H](NCCC(c1ccccc1)c1ccccc1)c1ccccc1", "class 1"),
    ("Cc1noc(C)c1S(=O)(=O)Nc1ccc2c(c1)CC(=O)N([C@@H](C)CO)C[C@@H](C)[C@@H](CN(C)Cc1ccncc1)O2", "class 0"),
    ("C[C@@H]1CN([C@@H](C)CO)S(=O)(=O)c2ccc(C#CCN(C)C)cc2O[C@H]1CN(C)Cc1ccccn1", "class 0"),
    ("Clc1ccc2c(c1)[C@H]1C=CC[C@@H]1[C@@H](c1ccccc1)N2", "class 0"),
]

---

- System: HepG2
- protocol: cytotoxicity call (relative viability < 0.9)
- conditionNotes: 10 µM
Out of some 39,000 compounds screened, about 3,300 (8.5%) were called active. Only a selection was taken, and actives are over-represented in it overall.
endpointLabel: cytotoxicity call

# smilesEntry, endpointLabel, reading
measured = [
    ("NCc1ccccc1-c1ccco1", "cytotoxicity call", "inactive"),
    ("Nc1nnc(C(F)(F)F)[nH]1", "cytotoxicity call", "inactive"),
    ("CO[C@@H]1CN(C)C(=O)c2cc(NC(=O)NC3CCCCC3)ccc2OC[C@@H](C)N(CCc2ccccc2)C[C@H]1C", "cytotoxicity call", "active"),
    ("CO[C@@H]1CN(C)C(=O)c2cc(NC(=O)NC(C)C)ccc2OC[C@H](C)N(Cc2ccc(-c3ccccn3)cc2)C[C@H]1C", "cytotoxicity call", "inactive"),
    ("C[C@H]1CN([C@@H](C)CO)C(=O)c2cc(NC(=O)NC3CCCCC3)ccc2O[C@H]1CN(C)C(=O)Nc1cccc2ccccc12", "cytotoxicity call", "active"),
    ("CO[C@H]1CN(C)C(=O)c2cc(NC(=O)NC(C)C)ccc2OC[C@H](C)N(Cc2ccc(-c3ccccn3)cc2)C[C@@H]1C", "cytotoxicity call", "active"),
    ("CO[C@@H]1CN(C)C(=O)c2cc(NC(=O)NC(C)C)ccc2OC[C@@H](C)N(Cc2ccc(-c3ccccn3)cc2)C[C@@H]1C", "cytotoxicity call", "inactive"),
    ("C[C@@H]1CN([C@@H](C)CO)C(=O)c2cc(NC(=O)NC3CCCCC3)ccc2O[C@H]1CN(C)C(=O)Nc1cccc2ccccc12", "cytotoxicity call", "inactive"),
]

---

- System: HepG2
- protocol: cytotoxicity call (relative viability < 0.9)
- conditionNotes: 10 µM
Out of some 39,000 compounds screened, about 3,300 (8.5%) were called active. The list comes from a sample in which actives are over-represented; it also holds close analogues and randomly drawn compounds.
Possible outcomes: active, inactive

# smilesEntry, labelValue
records = [
    ("C[C@@H]1CCCCO[C@@H](CN(C)C(=O)C2CCCCC2)[C@H](C)CN([C@H](C)CO)C(=O)c2cc(NS(=O)(=O)c3cccs3)ccc2O1", "inactive"),
    ("C[C@@H]1CCCCO[C@@H](CN(C)C(=O)Nc2ccc(C(F)(F)F)cc2)[C@H](C)CN([C@H](C)CO)C(=O)c2cc(NS(=O)(=O)c3cccs3)ccc2O1", "active"),
    ("CC(C)CC#Cc1cnc2c(c1)C(=O)N([C@H](C)CO)C[C@@H](C)[C@H](CN(C)S(=O)(=O)c1cccs1)O2", "inactive"),
]

---

- Test system: HepG2
- protocol: cytotoxicity call (relative viability < 0.9)
- conditionNotes: 10 µM
The campaign covered roughly 39,000 compounds. About 3,300 (8.5%) were called active. Only a selection was taken, and actives are over-represented in it overall.
Possible outcomes: true (1) = active, false (0) = inactive

# molecule, labelValue
data = [
    ("Clc1ccc(C(Cn2ccnc2)OCc2ccsc2Cl)c(Cl)c1 (stereo not drawn)", "false (0)"),
    ("O=C(CN1CCOCC1)N[C@H]1CC[C@H](CCn2cc(C3CC3)nn2)O[C@@H]1CO", "false (0)"),
    ("Cc1ccc(S(=O)(=O)Nc2ccc3c(c2)C(=O)N([C@H](C)CO)C[C@H](C)[C@@H](CN(C)C(=O)c2ccccc2)OCCCC[C@@H](C)O3)cc1", "false (0)"),
    ("C[C@@H]1CN([C@H](C)CO)C(=O)c2cccc(NC(=O)Nc3ccc(C(F)(F)F)cc3)c2O[C@@H]1CN(C)C(=O)NC1CCCCC1", "true (1)"),
    ("O=C(CN1CCOCC1)N[C@@H]1CC[C@H](CCn2cc(C3CC3)nn2)O[C@@H]1CO", "false (0)"),
    ("O=C(CC1CC1)NCc1cnc2n1CCNCC2", "false (0)"),
    ("Cc1noc(C)c1NC(=O)Nc1ccc2c(c1)C(=O)N([C@@H](C)CO)C[C@H](C)[C@H](CN(C)Cc1ccc(C(F)(F)F)cc1)O2", "false (0)"),
    ("Clc1ccc(C(c2ccc(Cl)cc2)[n+]2ccn(C[C@@H](OCc3ccc(Cl)cc3Cl)c3ccc(Cl)cc3Cl)c2)cc1", "true (1)"),
]
